Data credit: the supplement of paper PMC10307832

Entries and their relative viability values follow.
test system: LK-2; test: relative viability (nuclei count vs DMSO), 5 days (fraction); higher = more cells survive; conditions: first compound 0.05 µM
API doc: respond with a numeric literal and nothing else, no unit.

Nc1ccn([C@@H]2O[C@H](CO)[C@@H](O)[C@@H]2O)c(=O)n1 [Cytarabine] + Nc1ncn([C@H]2C[C@H](O)[C@@H](CO)O2)c(=O)n1 [Decitabine] (partner 2 µM): 0.15
COc1cc2nccc(Oc3ccc(NC(=O)Nc4cc(C)on4)c(Cl)c3)c2cc1OC [Tivozanib] + O=C(CCCCCCC(=O)Nc1ccccc1)NO [Vorinostat] (partner 1 µM): 0.33
COc1cc2nccc(Oc3ccc(NC(=O)Nc4cc(C)on4)c(Cl)c3)c2cc1OC [Tivozanib] + Cc1cc(Nc2cc(N3CCN(C)CC3)nc(Sc3ccc(NC(=O)C4CC4)cc3)n2)n[nH]1 [Tozasertib] (partner 0.1 µM): 0.159
COc1cc2nccc(Oc3ccc(NC(=O)Nc4cc(C)on4)c(Cl)c3)c2cc1OC [Tivozanib] + N=C(N)NC(=N)NCCc1ccccc1 [Phenformin] (partner 250 µM): 0.512

-- ask Please report the measured relative viability for Nc1ccn([C@@H]2O[C@H](CO)[C@@H](O)[C@@H]2O)c(=O)n1 [Cytarabine] + CCNC(=O)c1noc(-c2cc(C(C)C)c(O)cc2O)c1-c1ccc(CN2CCOCC2)cc1 [Luminespib] (partner 0.01 µM)
-- reply 0.197

-- ask Please report the measured relative viability for COc1cc2nccc(Oc3ccc(NC(=O)Nc4cc(C)on4)c(Cl)c3)c2cc1OC [Tivozanib] + CS(=O)(=O)CCNCc1ccc(-c2ccc3ncnc(Nc4ccc(OCc5cccc(F)c5)c(Cl)c4)c3c2)o1 [Lapatinib] (partner 2 µM)
-- reply 0.918

-- ask Please report the measured relative viability for Nc1ccn([C@@H]2O[C@H](CO)[C@@H](O)[C@@H]2O)c(=O)n1 [Cytarabine] + C[C@]1(O)C[C@@H](c2nc(-c3ccc4ccc(-c5ccccc5)nc4c3)c3c(N)nccn32)C1 [Linsitinib] (partner 1 µM)
-- reply 0.247

====

test system: HCC-15; test: relative viability (nuclei count vs DMSO), 5 days (fraction); higher = more cells survive; details: first compound 1.265 µM
Entries and their relative viability values follow.
API doc: respond with a numeric literal and nothing else, no unit.

# example entries with known answers
Cc1sc2c(c1C)C(c1ccc(Cl)cc1)=N[C@@H](CC(=O)OC(C)(C)C)c1nnc(C)n1-2 [JQ1] + COc1cc2c(Oc3ccc(NC(=O)C4(C(=O)Nc5ccc(F)cc5)CC4)cc3F)ccnc2cc1OCCCN1CCOCC1 [Foretinib] (partner 0.25 µM): 0.66
Cc1sc2c(c1C)C(c1ccc(Cl)cc1)=N[C@@H](CC(=O)OC(C)(C)C)c1nnc(C)n1-2 [JQ1] + NC(=O)Nc1cc(-c2cccc(F)c2)sc1C(=O)N[C@H]1CCCNC1 [AZD7762] (partner 0.2 µM): 0.512

Now examine the next entry.
-- ask Please report the measured relative viability for Cc1sc2c(c1C)C(c1ccc(Cl)cc1)=N[C@@H](CC(=O)OC(C)(C)C)c1nnc(C)n1-2 [JQ1] + Nc1nc2[nH]cc(CCc3ccc(C(=O)N[C@@H](CCC(=O)O)C(=O)O)cc3)c2c(=O)[nH]1 [Pemetrexed] (partner 0.2 µM)
-- reply 0.182

====

system: LXF-289; experiment: relative viability (nuclei count vs DMSO), 5 days (fraction); higher = more cells survive; settings: first compound 8 µM
Measured endpoint: relative viability
API doc: respond with a numeric literal and nothing else, no unit.

# example entries with known answers
O=c1[nH]c2ccccc2n1C1CCN(CCCC(c2ccc(F)cc2)c2ccc(F)cc2)CC1 [Pimozide] + Cc1nc(Nc2ncc(C(=O)Nc3c(C)cccc3Cl)s2)cc(N2CCN(CCO)CC2)n1 [Dasatinib] (partner 0.075 µM): 0.226
O=c1[nH]c2ccccc2n1C1CCN(CCCC(c2ccc(F)cc2)c2ccc(F)cc2)CC1 [Pimozide] + NC(=O)Nc1cc(-c2cccc(F)c2)sc1C(=O)N[C@H]1CCCNC1 [AZD7762] (partner 0.2 µM): 0.962
O=c1[nH]c2ccccc2n1C1CCN(CCCC(c2ccc(F)cc2)c2ccc(F)cc2)CC1 [Pimozide] + CC(=O)Nc1cccc(-n2c(=O)n(C3CC3)c(=O)c3c(Nc4ccc(I)cc4F)n(C)c(=O)c(C)c32)c1 [Trametinib] (partner 0.02 µM): 0.674

-- ask State relative viability (LXF-289) of O=c1[nH]c2ccccc2n1C1CCN(CCCC(c2ccc(F)cc2)c2ccc(F)cc2)CC1 [Pimozide] + C[C@]1(O)C[C@@H](c2nc(-c3ccc4ccc(-c5ccccc5)nc4c3)c3c(N)nccn32)C1 [Linsitinib] (partner 1 µM) .
-- reply 0.886

====

system: NCI-H23; assay: relative viability (nuclei count vs DMSO), 5 days (fraction); higher = more cells survive; settings: first compound 50 µM
Measured endpoint: relative viability
API doc: respond with a numeric literal and nothing else, no unit.

O=C(O)CCCCC(CCSCc1ccccc1)SCc1ccccc1 (stereo not drawn) [CPI-613] + CC(=O)Nc1cccc(-n2c(=O)n(C3CC3)c(=O)c3c(Nc4ccc(I)cc4F)n(C)c(=O)c(C)c32)c1 [Trametinib] (partner 0.02 µM): 0.393
O=C(O)CCCCC(CCSCc1ccccc1)SCc1ccccc1 (stereo not drawn) [CPI-613] + NC(=O)Nc1cc(-c2cccc(F)c2)sc1C(=O)N[C@H]1CCCNC1 [AZD7762] (partner 0.2 µM): 0.218

-- ask Please report the measured relative viability for O=C(O)CCCCC(CCSCc1ccccc1)SCc1ccccc1 (stereo not drawn) [CPI-613] + Cc1nc(NC(=O)N2CCC[C@H]2C(N)=O)sc1-c1ccnc(C(C)(C)C(F)(F)F)c1 [Alpelisib] (partner 2 µM)
-- reply 0.685

====

system: EKVX; experiment: relative viability (nuclei count vs DMSO), 5 days (fraction); higher = more cells survive; details: first compound 8 µM
Rule: relative viability below 0.9 gives Criterion met. Equal to or above 0.9 gives Criterion not met.

Solved entries:
O=c1[nH]c2ccccc2n1C1CCN(CCCC(c2ccc(F)cc2)c2ccc(F)cc2)CC1 [Pimozide] + CS(=O)(=O)N1CCN(Cc2cc3nc(-c4cccc5[nH]ncc45)nc(N4CCOCC4)c3s2)CC1 [Pictilisib] (partner 1 µM): Criterion met
O=c1[nH]c2ccccc2n1C1CCN(CCCC(c2ccc(F)cc2)c2ccc(F)cc2)CC1 [Pimozide] + COc1cccc2cc(-c3nc([C@H]4CC[C@H](C(=O)O)CC4)n4ncnc(N)c34)[nH]c12 [OSI-027] (partner 0.5 µM): Criterion met

-- ask Does the reported relative viability of the following compound sit strictly below 0.9? O=c1[nH]c2ccccc2n1C1CCN(CCCC(c2ccc(F)cc2)c2ccc(F)cc2)CC1 [Pimozide] + Cc1nc(NC(=O)N2CCC[C@H]2C(N)=O)sc1-c1ccnc(C(C)(C)C(F)(F)F)c1 [Alpelisib] (partner 2 µM)
-- reply Criterion met

-- ask Does the reported relative viability of the following compound sit strictly below 0.9? O=c1[nH]c2ccccc2n1C1CCN(CCCC(c2ccc(F)cc2)c2ccc(F)cc2)CC1 [Pimozide] + N=C(N)NC(=N)NCCc1ccccc1 [Phenformin] (partner 250 µM)
-- reply Criterion met

-- ask Does the reported relative viability of the following compound sit strictly below 0.9? O=c1[nH]c2ccccc2n1C1CCN(CCCC(c2ccc(F)cc2)c2ccc(F)cc2)CC1 [Pimozide] + CC1(C)CCC(c2ccc(Cl)cc2)=C(CN2CCN(c3ccc(C(=O)NS(=O)(=O)c4ccc(N[C@H](CCN5CCOCC5)CSc5ccccc5)c(S(=O)(=O)C(F)(F)F)c4)cc3)CC2)C1 [Navitoclax] (partner 0.5 µM)
-- reply Criterion not met

-- ask Does the reported relative viability of the following compound sit strictly below 0.9? O=c1[nH]c2ccccc2n1C1CCN(CCCC(c2ccc(F)cc2)c2ccc(F)cc2)CC1 [Pimozide] + C[C@]1(O)C[C@@H](c2nc(-c3ccc4ccc(-c5ccccc5)nc4c3)c3c(N)nccn32)C1 [Linsitinib] (partner 1 µM)
-- reply Criterion not met

-- ask Does the reported relative viability of the following compound sit strictly below 0.9? O=c1[nH]c2ccccc2n1C1CCN(CCCC(c2ccc(F)cc2)c2ccc(F)cc2)CC1 [Pimozide] + O=C(CCCCCCC(=O)Nc1ccccc1)NO [Vorinostat] (partner 1 µM)
-- reply Criterion met

====

test system: NCI-H520; experiment: relative viability (nuclei count vs DMSO), 5 days (fraction); higher = more cells survive; conditions: first compound 0.1581 µM
Measured endpoint: relative viability

COc1cc2nccc(Oc3ccc(NC(=O)Nc4cc(C)on4)c(Cl)c3)c2cc1OC [Tivozanib] + C[C@@H](Oc1cc(-c2cnn(C3CCNCC3)c2)cnc1N)c1c(Cl)ccc(F)c1Cl [Crizotinib] (partner 1 µM): 0.713
Nc1ccn([C@@H]2O[C@H](CO)[C@@H](O)[C@@H]2O)c(=O)n1 [Cytarabine] + C[C@]1(O)C[C@@H](c2nc(-c3ccc4ccc(-c5ccccc5)nc4c3)c3c(N)nccn32)C1 [Linsitinib] (partner 1 µM): 0.751
Nc1ccn([C@@H]2O[C@H](CO)[C@@H](O)[C@@H]2O)c(=O)n1 [Cytarabine] + COc1cc2c(Oc3ccc(NC(=O)C4(C(=O)Nc5ccc(F)cc5)CC4)cc3F)ccnc2cc1OCCCN1CCOCC1 [Foretinib] (partner 0.25 µM): 0.621

Now examine the next entry.
-- ask Please report the measured relative viability for COc1cc2nccc(Oc3ccc(NC(=O)Nc4cc(C)on4)c(Cl)c3)c2cc1OC [Tivozanib] + CCNC(=O)c1noc(-c2cc(C(C)C)c(O)cc2O)c1-c1ccc(CN2CCOCC2)cc1 [Luminespib] (partner 0.01 µM)
-- reply 0.328
